Tested on: MDA-MB-435
assay details: NCI tumour cell line growth inhibition, 48 h
Active and inactive are the calls of the source. Cut-off read from the data, not from the text of the source: active = GI50 up to about 1.1 µM and inactive = higher.
value type: GI50

> print(dat)
                                   compound  value.type               result
1  COc1ccc(/C=C2\CCC(CNc3ccc(OC)cc3)C2=O)cc1 (stereo not drawn)        GI50   20.8 µM (inactive)
2  Cc1cccc2c(N)c3cccc(C(=O)NCC[N+](C)(C)Cc4ccc(S(C)(=O)=O)cc4)c3nc12        GI50  > 100 µM (inactive)
3  NS(=O)(=O)c1nnc(NS(=O)(=O)c2ccc(F)cc2)s1        GI50  > 100 µM (inactive)

====

Tested on: NCI-H226
assay details: NCI tumour cell line growth inhibition, 48 h
Activity calls are given as the source filed them. Cut-off read from the data, not from the text of the source: active = GI50 up to about 1.1 µM and inactive = higher.
Classes used: T for active, F for inactive

> print(dat)
                                    molecule  answer.label
 1  C[N+](C)(C)CC1Cc2ccccc2C1=O (stereo not drawn)             F
 2  O=C1C(=Cc2cccc(O)c2)N=C(c2ccccc2)N1n1c(-c2ccccc2)nc2ccccc2c1=O             T
 3  COc1ccc(C2CC(c3c(O)ccc4ccccc34)=NN2)cc1OC (stereo not drawn)             F
 4                     COc1cc2c(cc1OC)CCN=C2             F
 5  CCOC(=O)C1CCCC1S(=O)(=O)c1ccc(C)cc1 (stereo not drawn)             F
 6  COc1ccc(NC(=O)CC(=O)n2nc(-c3ccccc3)c(/N=N/c3ccccc3C)c2-c2ccccc2)cc1             F
 7              O=C(O)Cc1cc(O)c(CC(=O)O)cc1O             F
 8     O=c1c2c(c1=O)C1(SCCCS1)c1cc(Cl)ccc1O2             F
 9  Cc1nn2c(C(=O)N/N=C/c3ccc([N+](=O)[O-])cc3)c(C)nc2s1             F
10  CCOC(=O)C(NC(=O)c1cccc(Cl)c1)(N1CCN(c2cc3c(cc2F)c(=O)c(C(=O)O)cn3CC)CC1)C(F)(F)F (stereo not drawn)             F
11    CSc1ccc(/C=C/C(=O)c2nc3ccccc3[nH]2)cc1             F
12  CC1C(C#N)(C#N)C(C#N)=C(N)C1(C)[N+](=O)[O-] (stereo not drawn)             F
13  COc1ccc(NC(=O)C(=O)Cc2nc3ccc([N+](=O)[O-])cc3nc2O)c(OC)c1             F
14                        O=C(O)CN1CCNCCNCC1             F
15  CN(C)CCCNc1cc(O)c2c(c1O)C(=O)c1ccccc1C2=O             F
16  CCCCCCCCCCCCCCCCCC(=O)Nc1ccn(C2OC(CO)C(O)C2O)c(=O)n1 (stereo not drawn)             F
17  CN(Cc1cc(Br)cc(Br)c1O)Cc1c(O)ccc2ccccc12             F
18  c1ccc(/N=C2\SC(c3ccccc3)CN2C23CC4CC(CC(C4)C2)C3)cc1 (stereo not drawn)             F
19  O=C(CC(C(=O)c1cccs1)c1ccsc1)c1ccc(Cl)cc1 (stereo not drawn)             F
20  Cc1ccc(S(=O)(=O)N(/N=C/C=C/c2ccccc2)c2nnc(-c3ccccc3)c(-c3ccccc3)n2)cc1             F
21                      O=C(O)Cc1cc(Cl)ccc1O             F
22  O=C1O[C@H](COC(=O)c2ccccc2)[C@@H](OC(=O)c2ccccc2)C=C1OC(=O)c1ccccc1             F
23               NCCCCN(CCCN)C(=O)OCc1ccccc1             F
